# protocol.description: protein stability index of a GFP-peptide fusion (GPS, HEK-293T) (PSI 1-6); higher = more stable;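 note: 24-mer peptide tiles fused after GFP, lentivirally expressed, FACS-sorted into six equal bins by GFP/DsRed ratio, decoded by Illumina sequencing, PSI is the read-weighted mean bin number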
# assay.conditions: treatment: DMSO; c terminus: a fixed tail appended
Reported protein stability index values are given for each entry in this list.

Consider the following illustrative entries.
ordered.residues	quantity	result
IRISMSHEEEPLGTAGPLALARDL [GMPPB]	protein stability index	3
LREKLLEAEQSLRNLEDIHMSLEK [TEKT4]	protein stability index	3.03

Shifting focus to the sequence that follows.
Incoming: Suppose we examine the sequence QVGTLLFRSRSRLTHLSLSRRASE [CDC25B] ; what protein stability index value has been reported?
Outgoing: 2.93

* * *

# protocol.description: protein stability index of a GFP-peptide fusion (GPS, HEK-293T) (PSI 1-6); higher = more stable
# assay.conditions: treatment: MLN4924 1 uM, 8 h; c terminus: a fixed tail appended
quantity: protein stability index
When you answer, write just the number.

// solved cases for protein stability index follow
ordered.residues	quantitative.readout
DQTGKEVADRWYSEIKNYNFQQPG [GLIPR2]	3.88
PLPHPGAAPWPMAFPYQYPPPPHP [DVL3]	3.41

Incoming: Please report the recorded protein stability index for PYSTVDNPVYYGPSDFFIGAVIEV [EFHC1] .
Outgoing: 3.13
